- Tested on: KG-1 (Leukemia)
- assay text: Cell line screen (potency assay)
- Type: cell-based
- condition label: AICDA expression Negative
measured quantity: pEC50
API: returns pEC50 as number; meaning -log10 of concentration in mol/L.

Prompt: # pEC50 lookup, item CC(C)OC(=O)N[C@H]1CC[C@H](c2ncc(-c3ccc(NC(=O)NCc4ncccc4F)cc3S(=O)(=O)NC(C)(C)C)s2)CC1
Response: 5.06

====

- Tested on: TOV-1120D (Ovary)
- assay text: Cell line screen (potency assay)
- Type: cell-based
- condition label: AICDA expression Negative
measured quantity: EC50
The reply must contain the numeric value and, after it, the unit.

Prompt: Please state recorded EC50 (tested on TOV-1120D (Ovary)) of CC(C)OC(=O)N[C@H]1CC[C@H](c2ncc(-c3ccc(NC(=O)NCc4ccccn4)cc3S(=O)(=O)NC(C)(C)C)s2)CC1
Response: 9.17 µM

====

Give Human Liver Microsome Stability % QH for every item shown.
- assay text: Human liver microsome stability
- Format: in vitro ADME
- condition label: percentage of hepatic blood flow
Give your result in % as a bare value.

Prompt: # Human Liver Microsome Stability % QH lookup, item CC(C)OC(=O)N[C@H]1CC[C@H](c2ncc(-c3ccc(NC(=O)NCc4ccccc4)cc3S(=O)(=O)NC(C)(C)C)s2)CC1 [Compound 66A]
Response: 49.6

Prompt: # Human Liver Microsome Stability % QH lookup, item CC(C)OC(=O)N[C@H]1CC[C@H](c2ncc(-c3ccc(NC(=O)NCc4ccccn4)cc3S(=O)(=O)NC(C)(C)C)s2)CC1
Response: 78.8

Prompt: # Human Liver Microsome Stability % QH lookup, item CC(C)OC(=O)N[C@H]1CC[C@H](c2ncc(-c3ccc(NC(=O)NCc4ncccc4F)cc3S(=O)(=O)NC(C)(C)C)s2)CC1
Response: 77.3

====

- assay text: Bi-directional Caco-2 permeability
- Format: in vitro ADME
- condition label: human, Caco-2, apical to basolateral; read-out: AB Recovery %
measured quantity: recovery at 90 min (%)
Give your result in % as a bare value.

Prompt: # recovery at 90 min lookup, item CC(C)NC(=O)OC1CCC(c2ncc(-c3ccc(NC(=O)NCc4ccccc4)cc3S(=O)(=O)NC(C)(C)C)s2)CC1 (stereo not shown) [Compound 21]
Response: 58.6

Prompt: # recovery at 90 min lookup, item CC(C)OC(=O)NC1CCC(c2ncc(-c3ccc(NC(=O)OC[C@@H]4CCCN4C)cc3S(=O)(=O)NC(C)(C)C)s2)CC1 (stereo partly shown) [Compound 35]
Response: 98.8

Prompt: # recovery at 90 min lookup, item CC(C)OC(=O)N[C@@H]1CCC(c2ncc(-c3ccc(NC(=O)NCc4ccccc4)cc3S(=O)(=O)NC(C)(C)C)s2)NC1 (stereo partly shown) [Compound 64]
Response: 79.7

Prompt: # recovery at 90 min lookup, item CC(C)OC(=O)NC1CCC(c2ncc(-c3ccc(NC(=O)OC[C@H]4CCCN4C)cc3S(=O)(=O)NC(C)(C)C)s2)CC1 (stereo partly shown) [Compound 34]
Response: 98.2

====

- assay text: Bi-directional Caco-2 permeability
- Format: in vitro ADME
- condition label: human, Caco-2, basolateral to apical; read-out: BA Recovery %
Give recovery at 90 min for every item shown.
The reply must contain the numeric value and, after it, the unit.

Prompt: # recovery at 90 min lookup, item CC(C)NC(=O)OC1CCC(c2ncc(-c3ccc(NC(=O)NCc4ccccc4)cc3S(=O)(=O)NC(C)(C)C)s2)CC1 (centres unmarked)
Response: 78.3%

Prompt: # recovery at 90 min lookup, item CC(C)OC(=O)NC1CCC(c2ncc(-c3ccc(NC(=O)OC[C@@H]4CCCN4C)cc3S(=O)(=O)NC(C)(C)C)s2)CC1 (some centres unmarked)
Response: 108%

Prompt: # recovery at 90 min lookup, item CC(C)OC(=O)N[C@@H]1CCC(c2ncc(-c3ccc(NC(=O)NCc4ccccc4)cc3S(=O)(=O)NC(C)(C)C)s2)NC1 (some centres unmarked)
Response: 95.9%

Prompt: # recovery at 90 min lookup, item CC(C)OC(=O)NC1CCC(c2ncc(-c3ccc(NC(=O)NCc4ccccc4F)cc3S(=O)(=O)NC(C)(C)C)s2)CC1 (centres unmarked)
Response: 81%

Prompt: # recovery at 90 min lookup, item CC(C)(C)NS(=O)(=O)c1cc(NC(=O)NCc2ccccc2)ccc1-c1cnc(C2CCC(NC(=O)OC3COC3)CC2)s1 (centres unmarked)
Response: 80.7%

Prompt: # recovery at 90 min lookup, item CC(C)OC(=O)NC1CCC(c2ncc(-c3ccc(NC(=O)N[C@H](C)c4ccccn4)cc3S(=O)(=O)NC(C)(C)C)s2)CC1 (some centres unmarked)
Response: 116%

Prompt: # recovery at 90 min lookup, item CC(C)OC(=O)Nc1ccc(-c2cnc(C3CCC(NC(=O)OC4CCCC4)CC3)s2)c(S(=O)(=O)NC(C)(C)C)c1 (centres unmarked)
Response: 92%

Prompt: # recovery at 90 min lookup, item CC(C)OC(=O)N[C@H]1CC[C@H](c2ncc(-c3ccc(NC(=O)NCc4ncccc4F)cc3S(=O)(=O)NC(C)(C)C)s2)CC1
Response: 92.3%

Prompt: # recovery at 90 min lookup, item CC(C)OC(=O)NC1CCC(c2ncc(-c3ccc(NC(=O)OC[C@H]4CCCN4C)cc3S(=O)(=O)NC(C)(C)C)s2)CC1 (some centres unmarked)
Response: 96.8%

Prompt: # recovery at 90 min lookup, item CC(C)(C)NS(=O)(=O)c1cc(NC(=O)NCc2ccccn2)ccc1-c1cnc(C2CCC(NC(=O)OC(C)(C)C)CC2)s1 (centres unmarked)
Response: 84.4%

Prompt: # recovery at 90 min lookup, item CC(C)OC(=O)NC1CCC(c2nc(F)c(-c3ccc(NC(=O)NCc4ccccc4)cc3S(=O)(=O)NC(C)(C)C)s2)CC1 (centres unmarked)
Response: 86.8%
